Molecular target: cPLA2 crudely purified from the cytoplasm fraction of U937 (Homo sapiens, UniProt P47712)
Construct: cPLA2 crudely purified from the cytoplasm fraction of U937; endogenous in cells; host or cells: U937 cells (cytoplasm fraction, crude purification)
Assay: Measurement of cPLA2 inhibitory activity (release of [14C]-arachidonic acid from phosphatidyl choline liposome)
Format: biochemical
Details: cPLA2 from U937 cytoplasm fraction, [14C]arachidonyl-phosphatidyl choline liposome, 37° C., 60 minutes; read-out: cPLA2 inhibitory activity, 50% inhibiting concentration IC50
Value Kind: pIC50
Bear in mind: pIC50 is minus log10 of a mol/L concentration; give just that figure.

Molecule	Experimental System	Value Kind	Recorded Value
Cc1c(CCc2ccccc2)c2cc(CCC(=O)O)ccc2n1-c1ccccc1	cPLA2 crudely purified from the cytoplasm fraction of U937 (Homo sapiens, UniProt P47712)	pIC50	6.90
O=C(O)CCc1ccc2c(c1)c(CCc1ccccc1)cn2-c1ccc(OCCCc2ccncc2)cc1	cPLA2 crudely purified from the cytoplasm fraction of U937 (Homo sapiens, UniProt P47712)	pIC50	8.10
O=C(O)/C=C/c1ccc2c(c1)c(CCc1ccccc1)cn2-c1ccccc1	cPLA2 crudely purified from the cytoplasm fraction of U937 (Homo sapiens, UniProt P47712)	pIC50	6.50

Look up pIC50: CCC(C(=O)c1cn(-c2ccccc2)c2ccc(CCC(=O)O)cc12)c1ccccc1 (stereo not shown)
6.48

###

Parameter: pIC50. Scope: all listed entries.
Target: cPLA2 crudely purified from the cytoplasm fraction of U937 (Homo sapiens, UniProt P47712)
Construct: cPLA2 crudely purified from the cytoplasm fraction of U937; endogenous in cells; host or cells: U937 cells (cytoplasm fraction, crude purification)
Assay: Measurement of cPLA2 inhibitory activity (release of [14C]-arachidonic acid from phosphatidyl choline liposome)
Format: biochemical
Conditions: cPLA2 from U937 cytoplasm fraction, [14C]arachidonyl-phosphatidyl choline liposome, 37° C., 60 minutes; read-out: cPLA2 inhibitory activity, 50% inhibiting concentration IC50
Experimental: The cPLA2 inhibitory activity was measured based on the method described in the document [See H. Naraba et al., J. Immunol. 160, 2974-2982 (1998)] and modified in the following way. A DMSO solution of the present invitation compounds was diluted to 2.5 times the final concentration with the assay buffer (4 mM CaCl2, 2 mM dithiothreitol, 150 mM NaCl, 50 mM HEPES buffer solution (pH7.5)) containing 0.55 mg/ml BSA. […]
Structures can show the parent of a compound that is named as a salt.
Bear in mind: pIC50 is minus log10 of a mol/L concentration; give just that figure.

Compound	Value Kind	Recorded Value
CC(=O)Nc1ccc(-n2cc(CCc3ccccc3)c3cc(CCC(=O)O)ccc32)cc1	pIC50	6.68
CC(C)Oc1cccc(-n2cc(CCc3ccccc3)c3cc(CCC(=O)O)ccc32)c1	pIC50	5.76

Look up pIC50: O=C(O)CCc1ccc2c(c1)c(CCc1ccccn1)cn2-c1ccc(COc2ccc(F)cc2)cc1 [Example 300, hydrochloride]
6.42

###

Molecular target: cPLA2 crudely purified from the cytoplasm fraction of U937 (Homo sapiens, UniProt P47712)
Construct: cPLA2 crudely purified from the cytoplasm fraction of U937; endogenous in cells; host or cells: U937 cells (cytoplasm fraction, crude purification)
Experiment: Measurement of cPLA2 inhibitory activity (release of [14C]-arachidonic acid from phosphatidyl choline liposome)
Format: biochemical
Parameter: IC50. Scope: all listed entries.
Numeric answer only, unit nM assumed.

Look over these answered cases.
Molecule	Experimental System	IC50 (nM)
O=C(O)CCc1ccc2c(c1)c(C(=O)Cc1ccccc1)cn2-c1ccccc1 [Example 12]	cPLA2 crudely purified from the cytoplasm fraction of U937 (Homo sapiens, UniProt P47712)	261
O=C(O)CCc1ccc2c(c1)c(C(=O)Cc1ccc(F)cc1)cn2-c1ccccc1 [Example 61]	cPLA2 crudely purified from the cytoplasm fraction of U937 (Homo sapiens, UniProt P47712)	653
O=C(O)CCc1ccc2c(c1)c(Cc1cccc3ccccc13)cn2-c1ccccc1 [Example 51]	cPLA2 crudely purified from the cytoplasm fraction of U937 (Homo sapiens, UniProt P47712)	704

Switching to the query record.
Look up IC50: COc1ccc(CC(=O)c2cn(-c3ccccc3)c3ccc(/C=C/C(=O)O)cc23)cc1 [Example 64]
19600

###

Biological target: cPLA2 crudely purified from the cytoplasm fraction of U937 (Homo sapiens)
Construct: cPLA2 crudely purified from the cytoplasm fraction of U937; endogenous in cells; host or cells: U937 cells (cytoplasm fraction, crude purification)
Assay: Measurement of cPLA2 inhibitory activity (release of [14C]-arachidonic acid from phosphatidyl choline liposome)
Format: biochemical
Settings: cPLA2 from U937 cytoplasm fraction, [14C]arachidonyl-phosphatidyl choline liposome, 37° C., 60 minutes; read-out: cPLA2 inhibitory activity, 50% inhibiting concentration IC50
Counter-ions that a name gives are not always drawn.
Value Kind: IC50 (nM)
Numeric answer only, unit nM assumed.

Look over these answered cases.
Molecule	IC50 [nM]
O=C(O)CCc1ccc2c(c1)c(CCc1ccccc1)cn2-c1ccc(Cl)cc1 [Example 105]	36
Cc1ccccc1-n1cc(CCc2ccccc2)c2cc(CCC(=O)O)ccc21 [Example 99]	288
COc1ccc(CCc2cn(-c3ccccc3)c3ccc(CCC(=O)O)cc23)cc1OC [Example 70]	1360
O=C(O)CCc1ccc2c(c1)c(CCc1ccccc1)cn2-c1ccc(SCc2ccccc2)cc1 [Example 335]	9
O=C(O)CCc1ccc2c(c1)c(CCc1ccccc1)cn2-c1ccc(Cc2ccccn2)cc1 [Example 235, hydrochloride]	122
O=C(O)CCc1ccc2c(c1)c(CCc1ccccn1)cn2-c1ccc(Oc2ccccc2)cc1 [Example 275, hydrochloride]	12
O=C(O)CCc1ccc2c(c1)c(CCc1ccccc1)cn2-c1ccccc1 [Example 17]	38
Cc1ccc(-n2cc(CCc3ccccc3)c3cc(CCC(=O)O)ccc32)cc1C [Example 101]	96

Look up IC50: O=C(O)CCc1ccc2c(c1)c(CCc1ccccc1)cn2-c1cccc(Cl)c1 [Example 181]
138

Look up IC50: Nc1ccc(-n2cc(CCc3ccccc3)c3cc(CCC(=O)O)ccc32)nc1 [Example 135]
277

Look up IC50: O=C(O)CCc1ccc2c(c1)c(CCc1ccccc1)cn2-c1ccc(OCCCc2cccnc2)cc1 [Example 258, hydrochloride]
2

Look up IC50: O=C(O)CCc1ccc2c(c1)c(CCc1ccccc1)cn2-c1ccc([N+](=O)[O-])cc1 [Example 83]
101

Look up IC50: O=C(O)CCc1ccc2c(c1)c(CCc1ccccc1)cn2-c1ccc(OCc2cccnc2)cc1 [Example 249, hydrochloride]
26

###

Target: cPLA2 crudely purified from the cytoplasm fraction of U937 (Homo sapiens)
Construct: cPLA2 crudely purified from the cytoplasm fraction of U937; endogenous in cells; host or cells: U937 cells (cytoplasm fraction, crude purification)
Assay: Measurement of cPLA2 inhibitory activity (release of [14C]-arachidonic acid from phosphatidyl choline liposome)
Format: biochemical
Details: cPLA2 from U937 cytoplasm fraction, [14C]arachidonyl-phosphatidyl choline liposome, 37° C., 60 minutes; read-out: cPLA2 inhibitory activity, 50% inhibiting concentration IC50
Parameter: IC50. Scope: all listed entries.
Numeric answer only, unit nM assumed.

Look over these answered cases.
Compound	IC50, nM
COc1cccc(CCc2cn(-c3ccccc3)c3ccc(CCC(=O)O)cc23)c1	1000
CCOc1ccc(-n2cc(CCc3ccccc3)c3cc(CCC(=O)C(F)(F)F)ccc32)cc1	740
CCN(CC)c1ccc(-n2cc(CCc3ccccc3)c3cc(CCC(=O)O)ccc32)cc1	142

Look up IC50: COCc1ccc(-n2cc(CCc3ccccc3)c3cc(CCC(=O)O)ccc32)cc1 [Example 217]
47

###

Target: cPLA2 crudely purified from the cytoplasm fraction of U937 (Homo sapiens, UniProt P47712)
Construct: cPLA2 crudely purified from the cytoplasm fraction of U937; endogenous in cells; host or cells: U937 cells (cytoplasm fraction, crude purification)
Sequence (P47712 1-749): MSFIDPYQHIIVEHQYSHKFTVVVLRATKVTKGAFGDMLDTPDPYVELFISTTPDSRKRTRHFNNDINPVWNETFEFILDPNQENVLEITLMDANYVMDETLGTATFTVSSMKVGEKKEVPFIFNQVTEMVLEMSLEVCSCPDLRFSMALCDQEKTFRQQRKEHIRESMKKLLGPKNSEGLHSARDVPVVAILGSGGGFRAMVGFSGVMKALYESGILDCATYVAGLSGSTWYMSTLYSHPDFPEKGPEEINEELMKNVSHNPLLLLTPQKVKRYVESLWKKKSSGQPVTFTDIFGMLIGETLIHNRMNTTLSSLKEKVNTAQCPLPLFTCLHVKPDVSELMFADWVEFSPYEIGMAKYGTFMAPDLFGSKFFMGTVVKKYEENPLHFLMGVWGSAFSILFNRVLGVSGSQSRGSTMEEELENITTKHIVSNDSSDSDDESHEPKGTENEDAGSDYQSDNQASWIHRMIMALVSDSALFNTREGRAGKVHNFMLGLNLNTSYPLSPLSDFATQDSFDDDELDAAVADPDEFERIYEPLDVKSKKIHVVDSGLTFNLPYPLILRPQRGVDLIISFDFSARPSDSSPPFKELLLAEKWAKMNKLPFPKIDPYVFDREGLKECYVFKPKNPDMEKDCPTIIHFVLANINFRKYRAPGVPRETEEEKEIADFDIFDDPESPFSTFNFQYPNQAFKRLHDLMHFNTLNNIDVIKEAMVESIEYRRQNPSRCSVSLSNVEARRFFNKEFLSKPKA
Assay: Measurement of cPLA2 inhibitory activity (release of [14C]-arachidonic acid from phosphatidyl choline liposome)
Type: biochemical
Conditions: cPLA2 from U937 cytoplasm fraction, [14C]arachidonyl-phosphatidyl choline liposome, 37° C., 60 minutes; read-out: cPLA2 inhibitory activity, 50% inhibiting concentration IC50
Counter-ions that a name gives are not always drawn.
Note to self: IC50 under 200 nM means Fulfilled, ties and anything higher get Not fulfilled.

Solved entries:
Compound	Group Label
O=C(O)CCc1ccc2c(c1)c(Cc1ccccc1)cn2-c1ccccc1	Fulfilled
O=C(O)CCc1ccc2c(c1)c(C(=O)C1(c3ccccc3)CC1)cn2-c1ccccc1	Not fulfilled
CN(C)S(=O)(=O)c1cccc(-n2cc(CCc3ccccc3)c3cc(CCC(=O)O)ccc32)c1	Not fulfilled
O=C(O)CCc1ccc2c(c1)c(CCc1ccccc1)cn2-c1cccc(S(=O)(=O)N2CCOCC2)c1	Not fulfilled
O=C(O)CCc1ccc2c(c1)c(CCc1ccccc1)cn2-c1ccc2c(c1)OCCO2	Fulfilled
O=C(O)CCc1ccc2c(c1)c(CCc1ccccc1)cn2-c1ccc(S(=O)(=O)N2CCOCC2)cc1	Not fulfilled
O=C(O)CCc1ccc2c(c1)c(CCc1ccccn1)cn2-c1cc(F)c(OCc2ccccc2)c(F)c1	Not fulfilled
Nc1ccc(-n2cc(CCc3ccccc3)c3cc(CCC(=O)O)ccc32)cc1	Fulfilled
O=C(O)CCc1ccc2c(c1)c(CCc1ccccc1)cn2-c1ccccc1[N+](=O)[O-]	Not fulfilled
CN(C)c1ccc(-n2cc(CCc3ccccc3)c3cc(CCC(=O)O)ccc32)cc1 [Example 86]	Fulfilled

Input `O=C(O)CCc1ccc2c(c1)c(CCc1ccccc1)cn2-c1ccc(COC(F)F)cc1` ; condition: IC50 strictly below 200 nM. Does it hold?
Fulfilled

Input O=C(O)CCc1ccc2c(c1)c(CCc1ccccn1)cn2-c1ccc(OCCO)cc1 [Example 279, hydrochloride] ; condition: IC50 strictly below 200 nM. Does it hold?
Not fulfilled

Input O=C(O)CCc1ccc2c(c1)c(CCc1ccccc1)cn2-c1ccc(CO)cc1 [Example 219] ; condition: IC50 strictly below 200 nM. Does it hold?
Fulfilled

Input O=C(O)CCc1ccc2c(c1)c(CCc1ccccc1)cn2-c1ccc(OC2CCCCO2)cc1 (stereo not shown) [Example 213] ; condition: IC50 strictly below 200 nM. Does it hold?
Fulfilled

Input `O=C(CCc1ccc2c(c1)c(CCc1ccccc1)cn2-c1ccccc1)C(F)(F)F` ; condition: IC50 strictly below 200 nM. Does it hold?
Not fulfilled

Input `O=C(CCc1ccc2c(c1)c(CCc1ccccc1)cn2-c1ccccc1)Nc1nnn[nH]1` ; condition: IC50 strictly below 200 nM. Does it hold?
Not fulfilled

Input `O=C(O)CCc1ccc2c(c1)c(CCc1ccccc1)cn2-c1ccc(C(=O)O)cc1` ; condition: IC50 strictly below 200 nM. Does it hold?
Fulfilled

Input `O=C(O)CCc1ccc2c(c1)c(CCc1ccccc1)cn2-c1ccc(C(F)(F)F)cn1` ; condition: IC50 strictly below 200 nM. Does it hold?
Fulfilled

Input O=C(O)CCc1ccc2c(c1)c(CCc1ccccc1)cn2-c1ccc(OCc2ccccn2)cc1 [Example 246, hydrochloride] ; condition: IC50 strictly below 200 nM. Does it hold?
Fulfilled
